System: MIA PaCa-2 cells
Assay: Gemcitabine Combination Cell Assay (Cell Titer Glo)
Format: cell-based
Settings: approximate concentration of Chk1 inhibitor that results in a two-fold reduction in the IC50 of gemcitabine alone, MIA PaCa-2 cells, 72 h
Method: Gemcitabine Combination Cell Assay Exponentially growing MIA PaCa-2 (ATCC CRL-1420) cells are treated with trypsin to remove cells from the plate surface. […] Luminescence (relative light units, RLU) is recorded using a BMG Polarstar Omega plate reader. […] The IC50 for gemcitabine alone and at each concentration of Chk1 is determined using a four-parameter non-linear regression curve fit. […]
Reported 2xLS values for the following compounds.

Record excerpt, results attached:
CCN1CCCN(c2ccc(-c3cc(Nc4cnc(C#N)cn4)n[nH]3)c(OC)c2)CC1 <3 nM
COc1cc(CN[C@@H]2CCOC2)ccc1-c1cc(Nc2cnc(C#N)cn2)n[nH]1 3 nM

Attention now turns to another entry.
I have this compound here, COc1cc(N2CCCNCC2)ccc1-c1cc(Nc2cnc(C#N)cn2)n[nH]1 , and I need its recorded 2xLS.
<3 nM

====

system: MIA PaCa-2 cells; assay: Gemcitabine Combination Cell Assay (Cell Titer Glo); type: cell-based; conditions: approximate concentration of Chk1 inhibitor that results in a two-fold reduction in the IC50 of gemcitabine alone, MIA PaCa-2 cells, 72 h
recorded_metric: 2xLS (nM)
Write the value in nM as a bare number.

See these solved cases before continuing.
compound	2xLS, nM
COc1cc(CO[C@H]2CCN(C(C)C)C2)ccc1-c1cc(Nc2cnc(C#N)cn2)n[nH]1 [Example 139]	10
N#Cc1cnc(Nc2cc(-c3ccc(N4CCNCC4)cc3OC(F)(F)F)[nH]n2)cn1 [Example 153]	100
CN1CCC(c2ccc(-c3cc(Nc4cnc(C#N)cn4)n[nH]3)c(F)c2)CC1 [Example 21]	100

Consider the compound COc1cc(C2CCNCC2)ccc1-c1cc(Nc2cnc(C)cn2)n[nH]1 [Example 55] and give its measured 2xLS.
1000

====

The reader will find reported pIC50 values listed item by item below.
biological target: Chk-1 kinase (Homo sapiens (Human), UniProt O14757); experiment: Chk-1 Kinase Inhibiting Activity (33P-ATP filter assay, CHKtide substrate); format: biochemical; settings: against Chk-1 kinase; read-out: IC50
Sequence (O14757 whole entry): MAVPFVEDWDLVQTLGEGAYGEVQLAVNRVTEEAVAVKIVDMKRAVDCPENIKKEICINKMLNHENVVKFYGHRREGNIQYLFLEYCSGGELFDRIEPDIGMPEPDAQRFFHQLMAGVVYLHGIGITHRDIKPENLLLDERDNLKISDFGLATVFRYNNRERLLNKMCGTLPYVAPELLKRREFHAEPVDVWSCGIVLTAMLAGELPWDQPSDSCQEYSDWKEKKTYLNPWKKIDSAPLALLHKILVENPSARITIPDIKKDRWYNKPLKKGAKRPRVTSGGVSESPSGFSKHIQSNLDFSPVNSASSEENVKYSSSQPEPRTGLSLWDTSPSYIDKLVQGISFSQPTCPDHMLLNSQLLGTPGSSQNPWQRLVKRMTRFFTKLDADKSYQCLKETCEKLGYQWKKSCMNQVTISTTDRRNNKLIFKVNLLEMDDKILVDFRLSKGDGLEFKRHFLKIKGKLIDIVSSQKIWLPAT
Structures can show the parent of a compound that is named as a salt.
Give only the number. pIC50 is defined as minus log10 of concentration in molar units.

molecule	measurement
COc1cc(CNCC2CC2)ccc1-c1cc(Nc2cnc(C#N)cn2)n[nH]1 [Example 130]	10.60
COc1cc([C@@H]2CN(C)CCO2)ccc1-c1cc(Nc2cnc(C#N)cn2)n[nH]1 [Example 117, hydrochloride]	10.57
COc1cc(CN[C@H](C)CN2CCOCC2)ccc1-c1cc(Nc2cnc(C#N)cn2)n[nH]1 [Example 18]	9.77

Please report the recorded pIC50 for COc1cc(C2CCN(C)CC2)c(F)cc1-c1cc(Nc2cnc(C#N)cn2)n[nH]1 [Example 32] .
9.59

====

Test system: MIA PaCa-2 cells
Assay: Gemcitabine Combination Cell Assay (Cell Titer Glo)
Type: cell-based
Conditions: approximate concentration of Chk1 inhibitor that results in a two-fold reduction in the IC50 of gemcitabine alone, MIA PaCa-2 cells, 72 h
Experimental: Gemcitabine Combination Cell Assay Exponentially growing MIA PaCa-2 (ATCC CRL-1420) cells are treated with trypsin to remove cells from the plate surface. […] Luminescence (relative light units, RLU) is recorded using a BMG Polarstar Omega plate reader. […] The IC50 for gemcitabine alone and at each concentration of Chk1 is determined using a four-parameter non-linear regression curve fit. […]
Where 2xLS equals or exceeds 10 nM, the correct label is Satisfied; where it does not, the label is Not satisfied.

Completed entries (count: 5):
compound	label_class
COc1cc(OCC2CCCN2C)ccc1-c1cc(Nc2cnc(C#N)cn2)n[nH]1 (stereo not drawn)	Not satisfied
COc1cc(N2CCCN(C)CC2)ccc1-c1cc(Nc2cnc(C#N)cn2)n[nH]1	Not satisfied
COc1cc(CN2CC[C@H](OC)C2)ccc1-c1cc(Nc2cnc(C#N)cn2)n[nH]1	Not satisfied
COc1cc(N2CCN(C)[C@H](C)C2)ccc1-c1cc(Nc2cnc(C#N)cn2)n[nH]1	Not satisfied
COc1cc(NCc2ccccc2)cc(OC)c1-c1cc(Nc2cnc(C#N)cn2)n[nH]1	Satisfied

Dear colleague, could you confirm whether COc1cc(C2CCNCC2)c(F)cc1-c1cc(Nc2cnc(C#N)cn2)n[nH]1 has 2xLS at or above 10 nM?
Satisfied

Next compound: COc1cc(C2CCN(C)CC2)ccc1-c1cc(Nc2ccc(C#N)c(F)c2)n[nH]1
Satisfied

What would you report for COc1cc(NCc2ccccc2)ccc1-c1cc(Nc2cnc(C#N)cn2)n[nH]1 ?
Satisfied

What about CCN1CCC(F)(c2ccc(-c3cc(Nc4cnc(C#N)cn4)n[nH]3)c(OC)c2)CC1 ?
Not satisfied

# iterate: COc1cc(NCCN2CCOCC2)ccc1-c1cc(Nc2cnc(C#N)cn2)n[nH]1
Not satisfied

Then this compound: COc1cc(N(C)CC2CCN(C(C)C)CC2)ccc1-c1cc(Nc2cnc(C#N)cn2)n[nH]1
Not satisfied

Continue with CCN1CCC[C@H]1Cc1ccc(-c2cc(Nc3cnc(C#N)cn3)n[nH]2)c(OC)c1
Not satisfied
